System: MUM24 cells
ASSAY REMARKS: Growth inhibition, trypan blue exclusion assay
Assay type: cell-based
CONDITIONS: Homo sapiens, MUM24, 48 h
READOUT LABEL: IC50
Write down the value, and be sure its unit follows.

input: Item under review: COc1c(OC(C)=O)c2c(c(O)c1C(C)C)C(=O)CC1C(C)(C)CCC[C@]1(O)C2 (stereo partly shown) . Reported IC50?
output: 5.29 µM

---

ASSAY REMARKS: Pharmacokinetic study, LC-MS/MS of plasma
Type: in vivo, ICR mice
CONDITIONS: male, mouse, ip; single i.p. injection 100 mg/kg, ICR mice, plasma
READOUT LABEL: Tmax (min)
Lab book: enter the figure in min, no units written.

input: If you can, please state the reported Tmax value of COc1c(OC(C)=O)c2c(c(O)c1C(C)C)C(=O)CC1C(C)(C)CCC[C@]1(O)C2 (stereo partly shown) [GTN057] .
output: 30

---

Tested on: KMS21 cells
ASSAY REMARKS: Growth inhibition, trypan blue exclusion assay
Type: cell-based
CONDITIONS: Homo sapiens, KMS21, 48 h
READOUT LABEL: pIC50
Just so you know, pIC50 here is -log10 of the concentration in molar units; reply with that number alone.

input: # lookup: pIC50 of COc1c(OC(C)=O)c2c(c(O)c1C(C)C)C(=O)CC1C(C)(C)CCC[C@]1(O)C2 (stereo partly shown)
output: 5.00

---

Test system: CD138-positive cells obtained from MM patients' bone marrow
ASSAY REMARKS: Growth inhibition of patient cells, MTT assay
Format: cell-based
CONDITIONS: Homo sapiens, 48 h, Patient 4 CD138+ cells
READOUT LABEL: IC50 (µM)
Quick reminder: number only, in µM, skip the unit.

input: What measured IC50 goes with COc1c(OC(C)=O)c2c(c(O)c1C(C)C)C(=O)CC1C(C)(C)CCC[C@]1(O)C2 (stereo partly shown) [GTN057] ?
output: 18.7
